- tested system: T1, neuropilin-1 (NRP1) on HEK293 cells overexpressing NRP1 (UniProt O14786 22-923, limits assumed)
- T1 construct: whole, on cells
- assay remarks: flow cytometry, HEK293-NRP1 vs HEK293
Decision: 100 nM FACS (MFI Ratio) compared against 3; not below it gives YES, below it gives NO.

As a guide, the following entries are already answered.
Query block: Has NRP1-254 (antibody, IgG2, V domains shown) VH: EVQLLESGGGLVQPGGSLRLSCAASGFTFNTHAMSWVRQAPGKGLEWVSTISGSGGYTYYADSVKGRFTISRDNSKNTLYLQMNSLRAEDTAVYYCAKDLAAAGDYWGQGTLVTVSS VL: DIQMTQSPSSLSASVGDRVTITCRASQRISTYLNWYQQKPGKAPKLLIYAASHLQSGVPSRFSGSGSGTDFTLTISSLQPEDFATYYCQQSHTTPLTFGGGTKVEIK a recorded 100 nM FACS (MFI Ratio) greater than or equal to 3?
Result block: NO

Query block: Has NRP1-98 (VHH) VHH: EVQLVESGGGLVQPGGSLRLSCAASGLNLSRLDMGWFRQAPGKEREFVAAISWSGDSTNYADSVKGRFTISADNSKNTAYLQMNSLKPEDTAVYYCARIHKAPYYGMDVWGQGTLVTVSS a recorded 100 nM FACS (MFI Ratio) greater than or equal to 3?
Result block: NO

Query block: Has NRP1-55 (VHH) VHH: EVQLVESGGGLVQPGGSLRLSCAASGFTLDYYVMGWFRQAPGKEREWVAFISGSGSKFYADSVKGRFTISADNSKNTAYLQMNSLKPEDTAVYYCVIQHFWSGYDDDYWGQGTLVTVSS a recorded 100 nM FACS (MFI Ratio) greater than or equal to 3?
Result block: NO

Query block: Has NRP1-279 (antibody, IgG2, V domains shown) VH: EVQLLESGGGLVQPGGSLRLSCAASGFTFSRHAMSWVRQAPGKGLEWVSGISGSGGRTHYADSVKGRFTISRDNSKNTLYLQMNSLRAEDTAVYYCARDPSTIAARRANHYYMDVWGQGTLVTVSS VL: DIQMTQSPSSLSASVGDRVTITCRTSQSISNFLNWYQQKPGKAPKLLIYRASTLQTGVPSRFSGSGSGTDFTLTISSLQPEDFATYYCQQSYKTPRTFGGGTKVEIK a recorded 100 nM FACS (MFI Ratio) greater than or equal to 3?
Result block: NO

Query block: Has NRP1-77 (VHH) VHH: EVQLVESGGGLVQPGGSLRLSCAASGRIFINNAMGWFRQAPGKERELVARISPAGSTYYADSVKGRFTISADNSKNTAYLQMNSLKPEDTAVYYCAARRIVNVEGAYRDWGQGTLVTVSS a recorded 100 nM FACS (MFI Ratio) greater than or equal to 3?
Result block: YES

Continuing:
Query block: Has NRP1-81 (VHH) VHH: EVQLVESGGGLVQPGGSLRLSCAASGRSSRYYAMGWFRQAPGKEREFVAAIRWTGMNTHYADSVKGRFTISADNSKNTAYLQMNSLKPEDTAVYYCAADRMYRPVGNQYDWGQGTLVTVSS a recorded 100 nM FACS (MFI Ratio) greater than or equal to 3?
Result block: YES

Query block: Has NRP1-89 (VHH) VHH: EVQLVESGGGLVQPGGSLRLSCAASGINFSRYGMGWFRQAPGKEREWVSAISSGGGSITTYADSVKGRFTISADNSKNTAYLQMNSLKPEDTAVYYCARHNSGWHFDYWGQGTLVTVSS a recorded 100 nM FACS (MFI Ratio) greater than or equal to 3?
Result block: NO

Query block: Has NRP1-113 (VHH) VHH: EVQLVESGGGLVQPGGSLRLSCAASGHTFRGDVMGWFRQAPGKEREFVASISGSGTRTLYADSVKGRFTISADNSKNTAYLQMNSLKPEDTAVYYCARDVEGGWYGLSYGMDVWGQGTLVTVSS a recorded 100 nM FACS (MFI Ratio) greater than or equal to 3?
Result block: NO

Query block: Has NRP1-109 (VHH) VHH: EVQLVESGGGLVQPGGSLRLSCAASGRTSRSYDMGWFRQAPGKEREFVASIDQSGESTAYADSVKGRFTISADNSKNTAYLQMNSLKPEDTAVYYCARADYYGSGSYFDYWGQGTLVTVSS a recorded 100 nM FACS (MFI Ratio) greater than or equal to 3?
Result block: NO

Query block: Has NRP1-3 (VHH) VHH: EVQLVESGGGLVQPGGSLRLSCAASGEPTFSSVAMGWFRQAPGKEREWVAEIYPSGSTVYADSVKGRFTISADNSKNTAYLQMNSLKPEDTAVYYCAKTNWNDWGAFDIWGQGTLVTVSS a recorded 100 nM FACS (MFI Ratio) greater than or equal to 3?
Result block: YES
